protease stability score for assorted sequences
Assay: protease stability score; higher = more stable; yeast display proteolysis, trypsin and chymotrypsin;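 also: relative to predicted unfolded state with 0 unfolded-like and 1 meaning tenfold more protease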
Metric: protease stability score

{"columns": ["Record sequence", "Metric", "Assay result"],
 "data": [
  ["SKLEEDTRRAVEHFLKNIHTGDEHELTKMLDPNVRLDFDGREYHGREEVVHYLFRIMHEFGADHSEVKHWHVQGDFMQVDTRLHVGDKFFETELYMHKINGRWYVKHIIIR", "protease stability score", 2.13],
  ["SQIEEDIRRQLKRFNDALTTGDEDEIMNLFDPDVRWIQGNYEHHGREFYLEMFREWRTHSIRIDIDRMEIQGDKVTLHTRFTVDGEFNGRRITEQYELVFIARKIDGRWVFREVRIK", "protease stability score", 2.4],
  ["DEEEEIIKEQLRILKKNLETGDWKAVLKMFDPNVREDVNGQTLIGRELWAQIFVEMGVDHIIERRVDIQGDKIRLYGQLDQGDKKHTTHIHARKVDGRWTFESVHVR", "protease stability score", 1.08],
  ["DEDEKASKVFVRLIKESIETGDEDTITHLADPNVRVIIGDKELHGWEELSRILHELRIHRFIVRREHVYDGRVQIDGRMDTEINGKKFITEVHVDAIKINGVWWLHLVEIR", "protease stability score", 1.38],
  ["SEDDDHSEHMYRRILELWKTGNWRLFHELLDPNTRFEIGDKEFHGREEVVEYLRRDLEKFKNIRFHIRQHEVVGNKLHIDGEIIFNGKHEHVHIILLIVDGKIKEIRFESR", "protease stability score", 2.72],
  ["SEDEEASKEMLERLIESIKTGDWRHDSNMVDPHARFRVGDKEFHGRDDLEHLVKHLGIKHVEVQHVRTYGNKMELHGWERFNGREVRVELHFVKIDGQWVLTEYRVR", "protease stability score", 0.616],
  ["DEEERDAEEVFRKFMRDVFTGNWDHIHEMFDPHARSSIQVDGRHIELHGRDELTRIFIWLGVDHIELKHVHIQGEKVISIGIVRYNGKHTHLEVYLRKVDGRWIIHSVHVRIR", "protease stability score", 1.67]
]}
